Data provenance: ChEMBL document CHEMBL1155506

Assay: Total clearance in dog at 2 mg/kg, iv after 24 hrs by HPLC/MS/MS analysis
Assay type: ADME, organism-based, Canis lupus familiaris
Parameters: dose 2 mg/kg, route intravenous
Conditions: in vivo
Parameter: clearance (mL/min/kg)

Smiles Repr	Quantity Unit	Measured Result
COc1cccc(C(=O)Nc2ccc(OCCN3CCOCC3)c(-c3ccnn3C)c2)c1	mL/min/kg	20

---

Target: hERG (KCNH2) (Homo sapiens, UniProt Q12809)
Sequence (Q12809 whole entry): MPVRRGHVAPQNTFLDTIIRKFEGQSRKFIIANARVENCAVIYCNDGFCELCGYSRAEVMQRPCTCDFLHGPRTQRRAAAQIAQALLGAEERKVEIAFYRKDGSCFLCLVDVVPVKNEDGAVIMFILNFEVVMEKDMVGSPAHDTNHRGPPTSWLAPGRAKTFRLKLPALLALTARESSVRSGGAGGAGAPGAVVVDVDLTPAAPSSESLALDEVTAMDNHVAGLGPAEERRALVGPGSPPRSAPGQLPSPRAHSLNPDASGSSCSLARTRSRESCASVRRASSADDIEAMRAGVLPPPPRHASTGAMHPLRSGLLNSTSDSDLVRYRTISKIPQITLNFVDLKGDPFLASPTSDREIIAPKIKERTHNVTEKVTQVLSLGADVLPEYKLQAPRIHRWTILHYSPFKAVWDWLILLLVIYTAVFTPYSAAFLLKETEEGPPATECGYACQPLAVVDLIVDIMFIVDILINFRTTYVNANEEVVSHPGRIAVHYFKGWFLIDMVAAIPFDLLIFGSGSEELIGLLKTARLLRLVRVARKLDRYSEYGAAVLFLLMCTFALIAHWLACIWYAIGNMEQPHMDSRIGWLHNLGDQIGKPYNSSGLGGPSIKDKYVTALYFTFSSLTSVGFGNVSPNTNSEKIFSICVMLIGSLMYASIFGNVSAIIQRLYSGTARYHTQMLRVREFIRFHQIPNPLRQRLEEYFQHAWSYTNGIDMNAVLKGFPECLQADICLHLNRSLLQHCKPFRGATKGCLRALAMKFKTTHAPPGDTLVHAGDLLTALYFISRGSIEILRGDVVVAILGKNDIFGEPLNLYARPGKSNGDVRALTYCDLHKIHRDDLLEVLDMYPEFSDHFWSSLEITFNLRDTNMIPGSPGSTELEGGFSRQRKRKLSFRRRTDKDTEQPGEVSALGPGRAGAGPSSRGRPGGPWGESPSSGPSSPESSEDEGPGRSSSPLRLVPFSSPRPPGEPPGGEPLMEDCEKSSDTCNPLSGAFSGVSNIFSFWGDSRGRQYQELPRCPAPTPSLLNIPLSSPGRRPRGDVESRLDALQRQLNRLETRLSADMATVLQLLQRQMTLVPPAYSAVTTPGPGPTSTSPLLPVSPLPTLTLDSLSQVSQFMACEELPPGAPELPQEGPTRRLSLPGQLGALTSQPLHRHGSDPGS
Experiment: Inhibition of human ERG at 3 uM by patch clamp assay

Compound	inhibition at 3 µM
COc1cccc(C(=O)Nc2ccc(OCCN3CCOCC3)c(-c3ccnn3C)c2)c1 [TEMANOGREL]	32%
COc1cccc(C(=O)Nc2ccc(OCCN3CCN(S(C)(=O)=O)CC3)c(-c3ccnn3C)c2)c1	23%
CC(=O)N1CCN(CCOc2ccc(NC(=O)c3cccc(C(F)(F)F)c3)cc2-c2ccnn2C)CC1	75%
